- test-system: T1, human 5T4 antigen (Homo sapiens, UniProt Q13641)
- T1 sequence (Q13641 32-420): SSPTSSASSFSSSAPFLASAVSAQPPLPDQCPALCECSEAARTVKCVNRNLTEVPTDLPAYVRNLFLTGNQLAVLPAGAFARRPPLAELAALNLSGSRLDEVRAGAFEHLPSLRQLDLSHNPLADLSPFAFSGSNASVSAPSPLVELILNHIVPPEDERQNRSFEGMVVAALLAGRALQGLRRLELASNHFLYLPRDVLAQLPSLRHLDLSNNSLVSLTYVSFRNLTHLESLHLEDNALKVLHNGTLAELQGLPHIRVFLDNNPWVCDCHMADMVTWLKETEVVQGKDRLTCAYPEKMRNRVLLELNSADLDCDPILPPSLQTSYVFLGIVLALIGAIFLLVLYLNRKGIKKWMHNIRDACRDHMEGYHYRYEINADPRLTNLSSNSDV
- assay-explanation: BIACORE analysis of antibody binding to human 5T4 antigen immobilized on a CM5 chip
- measurement-conditions: chimeric and humanized antibodies, Table 12
- Procedure: To assess the binding specificity and affinity of the A1, A2, and A3 antibodies, BIACORE® analysis was performed using human 5T4 antigen immobilized on a CM5 chip. BIACORE® technology utilizes changes in the refractive index at the surface layer upon binding of the antibody to the 5T4 antigen immobilized on the layer. Binding is detected by surface plasmon resonance (SPR) of laser light refracting from the surface. […]
measured-metric: KA (M⁻¹)
Write it as a number; the unit M⁻¹ goes unstated.

Problem: Need KA of Chimeric A3 + C91Y: chimeric A3 antibody bearing C91Y mutation in the heavy chain variable region (antibody, V domains shown) VH: EVQLVESGGGLVQPKGSLKLSCAASGFTFNTYAMNWVRQAPGKGLEWVARIRSKSNNYATYYADSVKDRFTISRDDSQSMLYLQMNNLKTEDTAMYYCVRQWDYDVRAMNYWGQGTSVTVSS VL: DIVMTQSHIFMSTSVGDRVSITCKASQDVDTAVAWYQQKPGQSPKLLIYWASTRLTGVPDRFTGSGSGTDFTLTISNVQSEDLADYFCQQYSSYPYTFGGGTKLEIK , thanks.
Solution: 1.7e+09
